target.desc: UniProt P35228
Sequence (P35228 whole entry): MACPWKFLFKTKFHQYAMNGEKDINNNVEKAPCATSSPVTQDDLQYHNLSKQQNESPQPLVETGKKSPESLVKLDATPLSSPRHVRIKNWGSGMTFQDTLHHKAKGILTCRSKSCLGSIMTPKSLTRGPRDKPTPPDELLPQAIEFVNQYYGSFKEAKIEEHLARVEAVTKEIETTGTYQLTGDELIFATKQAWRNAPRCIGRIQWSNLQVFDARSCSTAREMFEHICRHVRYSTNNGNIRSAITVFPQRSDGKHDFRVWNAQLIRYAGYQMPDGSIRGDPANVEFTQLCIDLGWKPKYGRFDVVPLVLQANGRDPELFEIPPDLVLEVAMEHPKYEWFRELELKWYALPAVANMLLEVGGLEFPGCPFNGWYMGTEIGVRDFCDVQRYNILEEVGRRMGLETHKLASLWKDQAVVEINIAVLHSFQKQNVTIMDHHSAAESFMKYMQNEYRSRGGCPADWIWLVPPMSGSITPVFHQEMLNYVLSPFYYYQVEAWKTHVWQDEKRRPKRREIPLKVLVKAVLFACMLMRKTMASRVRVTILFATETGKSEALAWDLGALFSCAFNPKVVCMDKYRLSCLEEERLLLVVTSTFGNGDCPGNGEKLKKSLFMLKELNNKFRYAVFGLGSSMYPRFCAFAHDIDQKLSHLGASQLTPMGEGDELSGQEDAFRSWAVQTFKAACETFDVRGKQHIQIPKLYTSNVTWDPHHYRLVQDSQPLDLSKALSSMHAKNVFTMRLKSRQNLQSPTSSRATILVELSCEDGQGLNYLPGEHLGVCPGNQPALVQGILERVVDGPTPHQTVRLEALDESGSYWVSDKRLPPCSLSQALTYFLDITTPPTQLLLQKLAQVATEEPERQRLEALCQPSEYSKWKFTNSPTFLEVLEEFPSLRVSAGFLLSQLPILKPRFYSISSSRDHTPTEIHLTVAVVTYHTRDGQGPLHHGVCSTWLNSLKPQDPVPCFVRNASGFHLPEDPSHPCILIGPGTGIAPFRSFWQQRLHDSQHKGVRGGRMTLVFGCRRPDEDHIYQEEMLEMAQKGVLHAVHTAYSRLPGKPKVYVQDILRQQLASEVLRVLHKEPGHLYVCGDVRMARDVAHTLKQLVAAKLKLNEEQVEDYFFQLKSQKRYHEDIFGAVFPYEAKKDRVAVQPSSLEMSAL
method.summary: Inhibitory concentration against nitric oxide synthesis in intact DLD-1 cells
Format: functional, cell-based
quantity: pIC50
pIC50 is defined as minus the log10 of a concentration measured in mol/L.

Use these answered entries as a reference point.
Query: Report the value of pIC50 obtained on UniProt P35228 for NC1=NC(C2CC2)Cc2ccccc21 (configuration not stated) .
Response: 3.52

Query: Report the value of pIC50 obtained on UniProt P35228 for NC1=NC(c2ccc(F)cc2)Cc2cccc(Cl)c21 (configuration not stated) .
Response: 3.46

Query: Report the value of pIC50 obtained on UniProt P35228 for NC1=NC(c2nccs2)Cc2ccccc21 (configuration not stated) .
Response: 3.06

Query: Report the value of pIC50 obtained on UniProt P35228 for CC(=N)NCCCC[C@H](N)C(=O)O .
Response: 3.33

***
Query: Report the value of pIC50 obtained on UniProt P35228 for NC1=NC(c2ccc(F)cc2)Cc2cccc(F)c21 (configuration not stated) .
Response: 3.46

Query: Report the value of pIC50 obtained on UniProt P35228 for COC(=O)[C@@H](N)CCCNC(=N)N[N+](=O)[O-] .
Response: 3.52

Query: Report the value of pIC50 obtained on UniProt P35228 for NC1=NC(c2ccccc2)Cc2cccc(F)c21 (configuration not stated) .
Response: 3.89

Where do the numbers come from? From ChEMBL document CHEMBL1134020.
